Details: in n-propanol, 308.15 K
Measure name: solubility (mole fraction)
Please reply with the value in numeric form only.

Which solubility (mole fraction) value is on record for CCOc1ccc2ccccc2c1C(=O)O ? 0.0632

====

Settings: in n-propanol, 283.15 K
Measure name: solubility (mole fraction)

May I ask what solubility (mole fraction) has been recorded for CCOc1ccc2ccccc2c1C(=O)O ? 0.0236

====

Details: in ethanol, 278.15 K
Measure name: solubility (mole fraction)

Data request, read-out solubility (mole fraction), for CCOc1ccc2ccccc2c1C(=O)O 0.0268

====

Details: in ethanol, 318.15 K
Measure name: solubility (mole fraction)
Give your answer as a number; write no unit.

Value lookup for solubility (mole fraction); key = CCOc1ccc2ccccc2c1C(=O)O 0.119

====

Details: in n-propanol, 313.15 K
Measure name: solubility (mole fraction)
Respond numerically, and do not add a unit to the figure.

solubility (mole fraction) for CCOc1ccc2ccccc2c1C(=O)O ? 0.0779

====

Conditions: in ethanol, 288.15 K
Measure name: solubility (mole fraction)
I only need the number, thanks.

Recorded solubility (mole fraction) of CCOc1ccc2ccccc2c1C(=O)O , please. 0.0392
